# study_target: taste-mGluR4 (Rattus norvegicus, UniProt P31423)
# Construct: expressed in transfected cells
# Sequence (P31423 309-912): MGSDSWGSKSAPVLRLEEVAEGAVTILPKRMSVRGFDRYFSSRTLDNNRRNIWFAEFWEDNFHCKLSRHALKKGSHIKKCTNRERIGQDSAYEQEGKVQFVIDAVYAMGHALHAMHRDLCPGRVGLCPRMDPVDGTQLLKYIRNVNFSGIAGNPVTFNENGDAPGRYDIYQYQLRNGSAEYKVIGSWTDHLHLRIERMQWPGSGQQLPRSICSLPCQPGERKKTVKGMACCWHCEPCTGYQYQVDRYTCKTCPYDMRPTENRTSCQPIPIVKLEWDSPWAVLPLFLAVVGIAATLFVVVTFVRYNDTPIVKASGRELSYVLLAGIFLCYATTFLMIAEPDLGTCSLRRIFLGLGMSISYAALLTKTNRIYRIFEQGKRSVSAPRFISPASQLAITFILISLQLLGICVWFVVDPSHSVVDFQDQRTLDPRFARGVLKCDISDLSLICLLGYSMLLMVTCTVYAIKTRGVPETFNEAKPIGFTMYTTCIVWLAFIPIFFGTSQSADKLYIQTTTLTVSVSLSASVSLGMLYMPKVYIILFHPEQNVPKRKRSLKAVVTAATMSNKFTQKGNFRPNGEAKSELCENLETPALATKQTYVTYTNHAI
# experiment_summary: Suppression of forskolin-stimulated cAMP in CHO cells stably expressing taste-mGluR4
# Format: cell-based
# assay_conditions: line with expression 2-fold lower than parallel brain-mGluR4 line; read-out: EC50, taste-mGluR4 CHO line
recorded_metric: pEC50
The value called pEC50 is obtained by taking minus log10 of the concentration in mol/L.

Input: Query (molecule): N[C@@H](CCC(=O)O)C(=O)O [L-glutamate] ; field requested: pEC50
Output: 3.60

----------
# study_target: brain-mGluR4 (Rattus norvegicus, UniProt P31423)
# Construct: Full-length cDNAs for brain-mGluR4 and taste-mGluR4 were reconstructed; expressed in transfected cells
# Sequence (P31423 33-912): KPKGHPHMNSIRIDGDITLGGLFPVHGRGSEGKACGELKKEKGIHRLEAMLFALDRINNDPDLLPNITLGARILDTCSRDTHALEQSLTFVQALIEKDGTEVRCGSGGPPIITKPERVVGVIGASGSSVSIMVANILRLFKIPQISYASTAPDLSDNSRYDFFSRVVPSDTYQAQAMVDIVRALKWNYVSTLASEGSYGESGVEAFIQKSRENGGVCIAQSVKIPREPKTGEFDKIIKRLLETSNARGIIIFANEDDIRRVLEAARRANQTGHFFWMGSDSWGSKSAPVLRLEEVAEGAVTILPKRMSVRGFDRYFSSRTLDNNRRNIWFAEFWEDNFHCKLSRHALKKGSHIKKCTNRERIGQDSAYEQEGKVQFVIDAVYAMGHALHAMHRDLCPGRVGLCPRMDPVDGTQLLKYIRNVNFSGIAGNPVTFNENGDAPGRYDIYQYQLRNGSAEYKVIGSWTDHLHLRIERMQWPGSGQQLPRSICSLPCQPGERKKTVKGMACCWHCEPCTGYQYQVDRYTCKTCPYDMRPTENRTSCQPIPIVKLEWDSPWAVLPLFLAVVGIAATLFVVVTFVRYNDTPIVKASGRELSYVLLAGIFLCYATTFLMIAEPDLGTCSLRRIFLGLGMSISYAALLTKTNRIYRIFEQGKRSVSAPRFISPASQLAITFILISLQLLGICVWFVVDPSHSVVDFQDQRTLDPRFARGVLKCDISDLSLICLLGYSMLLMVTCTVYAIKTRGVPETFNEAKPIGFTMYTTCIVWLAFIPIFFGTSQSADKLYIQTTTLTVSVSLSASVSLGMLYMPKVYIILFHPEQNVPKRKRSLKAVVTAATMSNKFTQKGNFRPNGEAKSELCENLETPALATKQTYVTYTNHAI
# experiment_summary: Suppression of forskolin-stimulated cAMP in CHO cells stably expressing brain-mGluR4
# Type: cell-based
# assay_conditions: CHO cells stably expressing brain-mGluR4; 10 μM forskolin, 1 mM IBMX
recorded_metric: pEC50
For clarity, pEC50 is expressed as the negative log10 of concentration in mol/L.

Input: State the recorded pEC50 for this entry: N[C@@H](CCC(=O)O)C(=O)O [L-glutamate]
Output: 5.70

----------
# study_target: taste-mGluR4 (Rattus norvegicus)
# Construct: expressed in transfected cells
# experiment_summary: Suppression of forskolin-stimulated cAMP in CHO cells stably expressing taste-mGluR4
# Type: cell-based
# assay_conditions: line with expression 100-fold lower than parallel brain-mGluR4 line; read-out: EC50, taste-mGluR4 CHO line
recorded_metric: EC50 (µM)
Please give a number only; it is taken to be in µM.

Input: Value lookup for EC50; key = N[C@@H](CCC(=O)O)C(=O)O [L-glutamate]
Output: 300
